# SYSTEM_UNDER_TEST: T1, recombinant human CD3 epsilon/delta heterodimer (human, UniProt P07766 23-126; P04234 22-105)
# T1 construct: Recombinant protein in solution (200-50 nM) in the Octet assay; also called hCD3 E/D; human CD3E/D
# ASSAY_PROCEDURE: Octet BLI, mAb on FAB2G sensor, hCD3 E/D 200-50 nM; R^2 0.99
QUANTITY: koff (s⁻¹)

# BINDER, READOUT_VALUE
records = [
    ("ABL-CD3-12 (antibody, V domains shown, Chimeric hybridoma mAb: human V, CH1, upper hinge; mouse middle hinge, CH2, CH3) VH: EVQLVESGGGLVKPGGSLRLSCAASGFTFSSYTMNWVRQAPGKGLEWVSSISRSSSYKYYADSVKGRFTISRDNAKNSLYLQMNSLRAEDTAVYYCAREPPTLGMDYWGQGTLVIVSS VL: NFMLTQPHSVSESPGKTVTISCTRSNGSITSNYVQWYQQRPGSSPTTVIYEDNQRPSGVPDRFSGSIDSSSNSASLTISGLKTEDEADYYCQSFDNSNRVFGEKTKLTVL", 0.00144),
    ("ABL-CD3-55 (antibody, V domains shown, Chimeric hybridoma mAb: human V, CH1, upper hinge; mouse middle hinge, CH2, CH3) VH: EVQLVESGGGLVKPGGSLRLSCAASGFTFSIYSMNWVRQAPGKGLEWVSSISSGSSYIYYADSVKGRFTISRDNAKSSLFLQMNSLRAEDTAVYYCAREKRELLFDYWGQGTLVTVSS VL: NFMLTQPHSVSESPGKTVTISCTRSSGSIASNYVQWYQQRPGSSPTTVIYEDNQRPSGVPDRFSGSIDRSSNSASLTISGLKTEDEADYYCQSYDSSNRVFGGGTKLTVL", 0.069),
    ("ABL-CD3-10 (antibody, V domains shown, Chimeric hybridoma mAb: human V, CH1, upper hinge; mouse middle hinge, CH2, CH3) VH: QVQLQQSGPGLVKPSQTLSLTCAISGDSVSCNSVAWNWIRQSPSRGLEWLGRTYYRSKWHNEYAVSVKSRINIKPDTSKNQVSLQLKSVTPEDTAVYYCARERKWELFLDYWGQGTLVTVSS VL: NFMLTQPHSVSESPGKTVTISCTRSSGSIASNYVQWYQQRPGSSPTTMIYEDNQRPSGVPDRFSGSIDSSSNSASLTISGLKTEDEADYYCQSLDSSSVVFGGGTKLTVL", 0.00046),
]
